# Test system: U251 CNS
# PROTOCOL_SUMMARY: NCI-60 one-dose screen, 48 h (100 = growth as untreated, 0 = no growth, -100 = all killed)
# CONDITIONS: 10 µM unless noted
About 83,000 compounds went through this panel and 20% of them were active in at least one assay; those are over-represented in the sample as a whole. Active and inactive are the calls of the source. Rule for the calls: active = growth percent below 10; inactive = the rest.
QUANTITY_KIND: growth

[[record]]
molecule = "Nc1ccccc1NC(=O)c1ccc(CN2CCC/C(=C\\c3cccc(Cl)c3)C2=O)cc1"
observed_value = "13.7% (inactive)"

[[record]]
molecule = "COc1ccccc1/C=C1\\COc2ccc(-c3ccccc3)cc2C1=O"
observed_value = "17.3% (inactive)"


Now examine the next entry.
Q. Any idea what growth was measured for O=S(=O)(O)c1cc(O)c2c(N=Nc3ccc(Nc4ccccc4)c4c(S(=O)(=O)O)cccc34)cc(S(=O)(=O)O)cc2c1 ?
A. 102% (inactive)
